FYI, the data here is from patent US11007200B2.

- measured.on: Sigma-1
- experiment.notes: Sigma-1 Ki determination (NIMH-PDSP)
- condition.summary: standard drug haloperidol
Where a name gives a salt, the structure may show the parent alone.
measurement.type: Ki
Reply with the number, then its unit.

| molecule | measured.on | Ki |
| --- | --- | --- |
| CN[C@]1(c2ccccc2Cl)CCCC[C@H]1NCCCN1CCCC1 (relative stereo) [Example 2b, trihydrochloride] | Sigma-1 | 37.2 nM |
| CN[C@]1(c2ccccc2Cl)CCCC[C@H]1NCCCc1ccccc1 (relative stereo) [Example 4b, dihydrochloride] | Sigma-1 | 697 nM |
| CN[C@]1(c2ccccc2Cl)CCCC[C@@H]1NCCCN1CCCC1 (relative stereo) [Example 2a, trihydrochloride] | Sigma-1 | 17.3 nM |

# input for lookup
Exercise: Quick one: Ki for CN[C@]1(c2ccccc2Cl)CCCC[C@@H]1NCCCN1CCN(C)CC1 (relative stereo) [Example 13a] ?
Key: 70 nM
